Would you mind telling me the reported normalized RNA/DNA level with ligand (log10) of each entry?
B1: library; a variant is named by its letters at N, in order (parent)
chain: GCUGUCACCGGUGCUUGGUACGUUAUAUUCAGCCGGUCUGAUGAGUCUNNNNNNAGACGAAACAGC

variants of: B1; experiment: normalized RNA/DNA level with ligand (relative to sTRSVctl = 100) (log10 (% of sTRSVctl)); HEK293T overexpressing SLC46A1; ligand concentration (+) RNA-Seq: 6 mM; higher = less ribozyme self-cleavage, higher mRNA level; conditions: with (6R,S)-folinic acid; ligand present: yes
Please reply with the number alone, leaving off any unit.

Query :: # lookup: normalized RNA/DNA level with ligand (log10) of `UGGUCG`
Result :: 1.99

Query :: Also need `ACGUCU` , thanks.
Result :: 2.03

Query :: Also need `CUUCAU` , thanks.
Result :: 1.99

Query :: Also need `UUAGCG` , thanks.
Result :: 1.98

Query :: Also need `GGGGGU` , thanks.
Result :: 2.05

Query :: Also need `UGGAAC` , thanks.
Result :: 2

Query :: Also need `CAGUGA` , thanks.
Result :: 2.01

Query :: Also need `CCUAAC` , thanks.
Result :: 2.04

Query :: Also need `ACAAUG` , thanks.
Result :: 2.03

Query :: Also need `GCGACU` , thanks.
Result :: 2.06

Query :: Also need `UCGUAA` , thanks.
Result :: 2.01

Query :: Also need `CCGCUU` , thanks.
Result :: 2.05

Query :: Also need `UUAGGU` , thanks.
Result :: 1.97

Query :: Also need `CCAACA` , thanks.
Result :: 2

Query :: Also need `AGUACC` , thanks.
Result :: 2.04

Query :: Also need `UUGGUA` , thanks.
Result :: 2

Query :: Also need `CAUAUG` , thanks.
Result :: 2.01

Query :: Also need `ACGAUC` , thanks.
Result :: 2.04

Query :: Also need `AGAACC` , thanks.
Result :: 2.01

Query :: Also need `GUAAUU` , thanks.
Result :: 1.99

Query :: Also need `GUCCAU` , thanks.
Result :: 2.01

Query :: Also need `AGCAAU` , thanks.
Result :: 2.01

Query :: Also need `UUCUAA` , thanks.
Result :: 2.01

Query :: Also need `AUCACC` , thanks.
Result :: 2.04

Query :: Also need `AACAAA` , thanks.
Result :: 1.99

Query :: Also need `GAGUAA` , thanks.
Result :: 1.99

Query :: Also need `UAAUCU` , thanks.
Result :: 2.05

Query :: Also need `AAUAGC` , thanks.
Result :: 2

Query :: Also need `GCCGCC` , thanks.
Result :: 2.02

Query :: Also need `AUUGGA` , thanks.
Result :: 2.01

Query :: Also need `CUACUC` , thanks.
Result :: 2.03

Query :: Also need `GAAGAG` , thanks.
Result :: 2.03

Query :: Also need `CAGGAA` , thanks.
Result :: 1.99

Query :: Also need `AUGUCU` , thanks.
Result :: 1.99

Query :: Also need `GCGCAA` , thanks.
Result :: 1.98

Query :: Also need `GGGUAU` , thanks.
Result :: 2.01

Query :: Also need `UUCUGA` , thanks.
Result :: 2.03

Query :: Also need `CCCCCA` , thanks.
Result :: 1.99

Query :: Also need `ACACCG` , thanks.
Result :: 2.01

Query :: Also need `GUGUAG` , thanks.
Result :: 2

Query :: Also need `UUGGAA` , thanks.
Result :: 1.99

Query :: Also need `CCGUGC` , thanks.
Result :: 1.99

Query :: Also need `AAUGAU` , thanks.
Result :: 2

Query :: Also need `ACCGUA` , thanks.
Result :: 2.01

Query :: Also need `UCACGA` , thanks.
Result :: 2.03

Query :: Also need `GUGAAU` , thanks.
Result :: 2
